assayInfo: Half life in Sprague-Dawley rat at 30 mg/kg, po
Format: ADME, organism-based
Design: dose 30 mg/kg, route oral
assaySetup: in vivo
quantityName: half-life (min)
Record the value in min, omitting the unit from your answer.

**Query** Looking for the measured half-life of CC(=O)NC[C@H]1CN(c2ccc([N+]3([O-])CCN(C(=O)/C=C/c4ccc([N+](=O)[O-])o4)CC3)c(F)c2)C(=O)O1 , can you help?
**Result** 58.2

====

Tested on: Staphylococcus epidermidis
assayInfo: Antibacterial activity against Staphylococcus epidermidis ATCC 155 by broth microdilution technique
Format: functional
Measured MIC values are reported for all entries that follow.

CC(=O)NC[C@H]1CN(c2ccc(N3CCN(C(=O)/C=C/c4cccnc4)CC3)c(F)c2)C(=O)O1: 0.5 µg/mL

**Query** Looking for the measured MIC of CC(=O)NC[C@H]1CN(c2ccc(N3CCN(C(=O)/C=C/c4ccc(C)o4)CC3)c(F)c2)C(=O)O1 , can you help?
**Result** 0.5 µg/mL

**Query** Next: CC(=O)NC[C@H]1CN(c2ccc(N3CCN(C(=O)/C=C/c4ccncc4)CC3)c(F)c2)C(=O)O1
**Result** 2 µg/mL

**Query** Next: CC(=O)NC[C@H]1CN(c2ccc(N3CCN(C(=O)/C=C/c4ccc([N+](=O)[O-])o4)CC3)c(F)c2)C(=O)O1
**Result** ≤ 0.12 µg/mL

**Query** Next: CC(=O)NC[C@H]1CN(c2ccc(N3CCN(C(=O)/C=C/c4ccc([N+](=O)[O-])s4)CC3)c(F)c2)C(=O)O1
**Result** ≤ 0.12 µg/mL

**Query** Next: CC(=O)NC[C@H]1CN(c2ccc(N3CCN(C(=O)/C=C/c4cccs4)CC3)c(F)c2)C(=O)O1
**Result** 0.5 µg/mL
